Where do these numbers come from? They come from patent US11970511B2.

molecular target: His-tagged recombinant human Gal-3 (hGal-3) (Homo sapiens, UniProt P17931); experiment: Gal-3 HTRF assay: His-tagged hGal-3 binding to B-ASF, Anti-His terbium antibody / Streptavidin d2 detection; details: 15 nM hGal-3, 15 nM B-ASF, three replicates, room temperature
Sequence (P17931 whole entry): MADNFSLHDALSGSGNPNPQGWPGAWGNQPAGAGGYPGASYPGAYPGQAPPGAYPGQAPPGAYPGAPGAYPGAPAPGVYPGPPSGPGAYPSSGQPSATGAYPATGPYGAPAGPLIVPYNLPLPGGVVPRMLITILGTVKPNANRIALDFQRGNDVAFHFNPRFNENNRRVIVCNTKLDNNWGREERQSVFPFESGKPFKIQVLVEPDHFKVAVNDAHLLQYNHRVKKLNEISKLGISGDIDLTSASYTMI
measured quantity: IC50 (nM)

[a] COc1ncc(-c2cn([C@H]3COC[C@@H](S[C@@H]4O[C@H](CO)[C@H](O)[C@H](n5cc(-c6cc(F)c(F)c(F)c6)nn5)[C@H]4OCC(=O)N4CCC4)[C@@H]3O)nn2)cn1
[b] COc1c(F)c(F)c(C(=O)N[C@H]2[C@@H](O)[C@@H](CO)O[C@@H](S[C@@H]3COC[C@H](n4cc(-c5ccccc5)nn4)[C@H]3O)[C@@H]2OC)c(F)c1F
[c] COc1ncc(-c2cn(C3COCC(SC4OC(CO)C(O)C(n5cc(-c6cc(F)c(F)c(F)c6)nn5)C4OCC(=O)N4CC(C)OC(C)C4)C3O)nn2)cn1 (single isomer, unassigned)
Request: // rank the listed compounds by IC50, lowest value first Output the labels ranked as instructed.
Result: c, a, b

* * *

biological target: His-tagged recombinant human Gal-3 (hGal-3) (Homo sapiens); assay: Gal-3 HTRF assay: His-tagged hGal-3 binding to B-ASF, Anti-His terbium antibody / Streptavidin d2 detection; settings: 15 nM hGal-3, 15 nM B-ASF, three replicates, room temperature
pIC50: −log10 of the molar value.
measured quantity: pIC50

Request: Please report pIC50 for the following compound: CO[C@@H]1[C@@H](n2cc(-c3nccs3)nn2)[C@@H](O)[C@@H](CO)O[C@H]1S[C@@H]1COC[C@H](n2cc(-c3ccccc3)nn2)[C@H]1O
Result: 6.31

[a] CO[C@@H]1[C@@H](n2cc(-c3ccc4ccccc4c3)nn2)[C@@H](O)[C@@H](CO)O[C@H]1S[C@@H]1COC[C@H](n2cc(-c3ccccc3)nn2)[C@H]1O
[b] O=C(CO[C@@H]1[C@@H](n2cc(-c3cc(F)c(F)c(F)c3)nn2)[C@@H](O)[C@@H](CO)O[C@H]1S[C@@H]1COC[C@H](n2cc(-c3cncnc3)nn2)[C@H]1O)N1CCOCC1
Request: Between a and b , whose measured pIC50 reads higher? Please identify the chosen entry by its label.
Result: b

* * *

biological target: His-tagged recombinant human Gal-3 (hGal-3) (Homo sapiens, UniProt P17931); test: Gal-3 HTRF assay: His-tagged hGal-3 binding to B-ASF, Anti-His terbium antibody / Streptavidin d2 detection; details: 15 nM hGal-3, 15 nM B-ASF, three replicates, room temperature;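 note: compound preincubated 30 min with hGal-3, then 1 h with B-ASF, DMSO wells with B-ASF serving as positive control and those lacking B-ASF as negative control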
measured quantity: IC50 (µM)

Solved entries (count: 3):
Request: For His-tagged recombinant human Gal-3 (hGal-3) (Homo sapiens, UniProt P17931), give the measured IC50 of the entry CO[C@@H]1[C@@H](n2cc(-c3ccc4nccnc4c3)nn2)[C@@H](O)[C@@H](CO)O[C@H]1S[C@@H]1COC[C@H](n2cc(-c3ccccc3)nn2)[C@H]1O [Example A8]
Result: 0.17

Request: For His-tagged recombinant human Gal-3 (hGal-3) (Homo sapiens, UniProt P17931), give the measured IC50 of the entry O=C(O)COC1C(SC2COCC(n3cc(-c4cncnc4)nn3)C2O)OC(CO)C(O)C1n1cc(-c2cc(F)c(F)c(F)c2)nn1 (centres unmarked) [Example 26]
Result: 0.015

Request: For His-tagged recombinant human Gal-3 (hGal-3) (Homo sapiens, UniProt P17931), give the measured IC50 of the entry COc1ncc(-c2cn(C3COCC(SC4OC(CO)C(O)C(n5cc(-c6cc(F)c(F)c(F)c6)nn5)C4OCC(=O)N4CCS(=O)(=O)CC4)C3O)nn2)cn1 (centres unmarked) [Example 33]
Result: 0.012

[I] COC(=O)COC1C(SC2COCC(n3cc(-c4cncnc4)nn3)C2O)OC(CO)C(O)C1n1cc(-c2cc(F)c(F)c(F)c2)nn1 (centres unmarked) [Example 27]
[II] CO[C@@H]1[C@@H](n2cc(-c3ccc(-c4ccccc4)cc3)nn2)[C@@H](O)[C@@H](CO)O[C@H]1S[C@@H]1COC[C@H](n2cc(-c3ccccc3)nn2)[C@H]1O [Example A3]
[III] CO[C@@H]1[C@@H](n2cc(-c3cccc(F)c3)nn2)[C@@H](O)[C@@H](CO)O[C@H]1S[C@@H]1COC[C@H](n2cc(-c3ccccc3)nn2)[C@H]1O [Example A4]
[IV] CO[C@@H]1[C@@H](NC(=O)c2cc(F)c(F)c(F)c2)[C@@H](O)[C@@H](CO)O[C@H]1S[C@@H]1COC[C@H](n2cc(-c3ccccc3)nn2)[C@H]1O [Example A12]
Request: Form: Sort by [IC50] Order [ ascending ] Output the labels ranked as instructed.
Result: I, III, IV, II

[1] COc1ncc(-c2cn([C@H]3COC[C@@H](S[C@@H]4O[C@H](CO)[C@H](O)[C@H](n5cc(-c6cc(F)c(F)c(F)c6)nn5)[C@H]4OCC(=O)N4CCOCC4)[C@@H]3O)nn2)cn1 [Example 31]
[2] CO[C@@H]1[C@@H](n2cc(-c3ccnnc3)nn2)[C@@H](O)[C@@H](CO)O[C@H]1S[C@@H]1COC[C@H](n2cc(-c3ccccc3)nn2)[C@H]1O [Example A9]
[3] COC1C(SC2CN(C(C)=O)CC(n3cc(-c4cccc(F)c4)nn3)C2O)OC(CO)C(O)C1n1cc(-c2cccc(F)c2)nn1 (centres unmarked) [Example B3]
Request: // ranking: key=IC50, reverse=True Output the labels ranked as instructed.
Result: 2, 3, 1
(2: 1.24 µM, 3: 0.054 µM, 1: 0.013 µM)
